Tested on: Yellowjackets (mainly Vespula pensylvanica (ca. 90%), plus V. vulgaris, V. germanica, and Dolichovespula maculata)
Assay: Field trapping, Rescue W•H•Y traps baited with attractant AA/2MB: captures of yellowjackets
Assay type: in vivo
Settings: Table 8, Experiment 9; attractant AA/2MB alone (row AA/2MB) or plus chemical; 13 days in September; N 9
Entries and their Mean/trap/visit ± SE Yellowjackets values follow.
Your answer should be a plain number; it is taken to be in b wasps/trap/visit.

The following molecules have reported results that may help.
# MOLECULE, PROPERTY_NAME, REPORTED_RESULT
measured = [
    ("CC1=CC(=O)[C@H]2C[C@@H]1C2(C)C [(−)-Verbenone, (−)-verbenone]", "Mean/trap/visit ± SE Yellowjackets", 18.7),
    ("CC(C)=CCCC(C)CCO (centres unmarked)", "Mean/trap/visit ± SE Yellowjackets", 36.2),
]

Need Mean/trap/visit ± SE Yellowjackets, item CC1=CCC(C(C)(C)O)CC1 (centres unmarked)
21.9

And for CC1=CCC(O)(C(C)C)CC1 (centres unmarked) ?
23.3
